B1: library; a variant is named by its letters at N, in order (parent)
chain: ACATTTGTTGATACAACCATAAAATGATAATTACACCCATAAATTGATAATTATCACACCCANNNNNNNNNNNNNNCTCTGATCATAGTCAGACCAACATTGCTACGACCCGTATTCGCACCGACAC

Variants of: B1
Experiment: relative integration efficiency (T-LR orientation) vs wild-type transposon end (log2 (normalized fold change)); transposon end mutated: right end (5 bp flank + 75 bp right end); higher = more efficient transposition
Details: with VchCAST RNA-guided transposition machinery (E. coli BL21(DE3) host, lacZ target)
Reported relative integration efficiency (log2) is given for each of the following variants.
measured.metric: relative integration efficiency (log2)

{"variant.designation": "ATTTAACTATAACG A30G", "measured.metric": "relative integration efficiency (log2)", "reported.value": 2.11}
{"variant.designation": "TAAGTTGATATTTT C59A", "measured.metric": "relative integration efficiency (log2)", "reported.value": -0.156}
{"variant.designation": "TAAATTGATATTGC A41C", "measured.metric": "relative integration efficiency (log2)", "reported.value": -0.78}
{"variant.designation": "ATTTAACTATAACG T48C", "measured.metric": "relative integration efficiency (log2)", "reported.value": 2.03}
{"variant.designation": "ATTTAACTATAACG A47T", "measured.metric": "relative integration efficiency (log2)", "reported.value": 1.84}
{"variant.designation": "TAAATTGATATTGC T45G", "measured.metric": "relative integration efficiency (log2)", "reported.value": -0.522}
{"variant.designation": "TAAATTGATATTGC A3G", "measured.metric": "relative integration efficiency (log2)", "reported.value": 0.0517}
{"variant.designation": "TAAATTGATATTGC A27G", "measured.metric": "relative integration efficiency (log2)", "reported.value": -0.445}
{"variant.designation": "TAAATTGATATTGC T12G", "measured.metric": "relative integration efficiency (log2)", "reported.value": -1.06}
{"variant.designation": "TAAATTGATATTGC C79G", "measured.metric": "relative integration efficiency (log2)", "reported.value": -0.196}
{"variant.designation": "TAACTTGATATTGC", "measured.metric": "relative integration efficiency (log2)", "reported.value": 0.325}
{"variant.designation": "ATTTAACTATAACG A16C", "measured.metric": "relative integration efficiency (log2)", "reported.value": 2}
{"variant.designation": "TAAAAAGATATTGC", "measured.metric": "relative integration efficiency (log2)", "reported.value": 1.04}
{"variant.designation": "TAAATTGATATTGA", "measured.metric": "relative integration efficiency (log2)", "reported.value": 0.0994}
{"variant.designation": "TAAATTGATATTGC T25A", "measured.metric": "relative integration efficiency (log2)", "reported.value": -0.8}
{"variant.designation": "TAAATTGATATTGC C2G", "measured.metric": "relative integration efficiency (log2)", "reported.value": 0.363}
{"variant.designation": "GAAATTGATATTGC A62C", "measured.metric": "relative integration efficiency (log2)", "reported.value": 2.52}
{"variant.designation": "ATTTAACTATAACG T54G", "measured.metric": "relative integration efficiency (log2)", "reported.value": 2.49}
{"variant.designation": "TAAATTGATATTGC A39C", "measured.metric": "relative integration efficiency (log2)", "reported.value": -1.05}
{"variant.designation": "TAAATTGATATTGC A3T", "measured.metric": "relative integration efficiency (log2)", "reported.value": -0.195}
{"variant.designation": "ATTTAACTATAACG G10A", "measured.metric": "relative integration efficiency (log2)", "reported.value": 1.89}
{"variant.designation": "ATTTAACTATAACG T44A", "measured.metric": "relative integration efficiency (log2)", "reported.value": 2.32}
{"variant.designation": "TAAATTGATATTGC T20C", "measured.metric": "relative integration efficiency (log2)", "reported.value": -0.577}
{"variant.designation": "TAAATTGATATTGC A19G", "measured.metric": "relative integration efficiency (log2)", "reported.value": -0.378}
{"variant.designation": "TAAATTGATTTTGC", "measured.metric": "relative integration efficiency (log2)", "reported.value": 0.338}
{"variant.designation": "TAAATTGATATTGC T44G", "measured.metric": "relative integration efficiency (log2)", "reported.value": -0.385}
{"variant.designation": "TAAATTAATATTGC", "measured.metric": "relative integration efficiency (log2)", "reported.value": 1.63}
{"variant.designation": "TAAATTGATATTGC T8C", "measured.metric": "relative integration efficiency (log2)", "reported.value": -2.19}
{"variant.designation": "ATTTAACTATAACG T51G", "measured.metric": "relative integration efficiency (log2)", "reported.value": 2.1}
{"variant.designation": "TAAATTGATATTGC A22C", "measured.metric": "relative integration efficiency (log2)", "reported.value": -1.72}
{"variant.designation": "TAAATTTCTATTGC", "measured.metric": "relative integration efficiency (log2)", "reported.value": 2.4}
{"variant.designation": "TAAAGGGATATTGC", "measured.metric": "relative integration efficiency (log2)", "reported.value": 1.63}
{"variant.designation": "TAAATTGATATTGC A11G", "measured.metric": "relative integration efficiency (log2)", "reported.value": -0.5}
{"variant.designation": "ATTTAACTATAACG T51A", "measured.metric": "relative integration efficiency (log2)", "reported.value": 2.29}
{"variant.designation": "TAAATTGATATTGC G7T", "measured.metric": "relative integration efficiency (log2)", "reported.value": -3.44}
{"variant.designation": "ATTTAACTATAACG G26T", "measured.metric": "relative integration efficiency (log2)", "reported.value": 2.24}
{"variant.designation": "TAAATTGATATGTA C77A", "measured.metric": "relative integration efficiency (log2)", "reported.value": 0.332}
{"variant.designation": "ATTTAACTATAACG A29C", "measured.metric": "relative integration efficiency (log2)", "reported.value": 1.8}
{"variant.designation": "ATTTAACTATAACG C36A", "measured.metric": "relative integration efficiency (log2)", "reported.value": 2.4}
{"variant.designation": "TAAAGTGATATTGC", "measured.metric": "relative integration efficiency (log2)", "reported.value": 0.119}
{"variant.designation": "ATTTAACTATAACG T25C", "measured.metric": "relative integration efficiency (log2)", "reported.value": 2.2}
{"variant.designation": "TAAATTGATCGGTC", "measured.metric": "relative integration efficiency (log2)", "reported.value": 1.42}
{"variant.designation": "TAAATTGATATTGC A15G", "measured.metric": "relative integration efficiency (log2)", "reported.value": -0.228}
{"variant.designation": "TAAATTGATATTGC A35T", "measured.metric": "relative integration efficiency (log2)", "reported.value": -0.45}
{"variant.designation": "ATTTAACTATAACG A42T", "measured.metric": "relative integration efficiency (log2)", "reported.value": 2.24}
{"variant.designation": "TAAATTGATATTGC T45A", "measured.metric": "relative integration efficiency (log2)", "reported.value": -0.351}
{"variant.designation": "ATTTAACTATAACG T28G", "measured.metric": "relative integration efficiency (log2)", "reported.value": 1.89}
{"variant.designation": "ATTTAACTATAACG C18G", "measured.metric": "relative integration efficiency (log2)", "reported.value": 1.98}
{"variant.designation": "TAAATTGTTATTGC", "measured.metric": "relative integration efficiency (log2)", "reported.value": 1.61}
{"variant.designation": "TAAATTGATGTTGC", "measured.metric": "relative integration efficiency (log2)", "reported.value": 0.475}
{"variant.designation": "TAAATTGATATTGC C59T", "measured.metric": "relative integration efficiency (log2)", "reported.value": 0.538}
{"variant.designation": "TAAATTGATATTGC A19T", "measured.metric": "relative integration efficiency (log2)", "reported.value": -0.267}
{"variant.designation": "TAAATTGATATGTC", "measured.metric": "relative integration efficiency (log2)", "reported.value": 0.485}
{"variant.designation": "ATTTAACTATAACG A11C", "measured.metric": "relative integration efficiency (log2)", "reported.value": 1.51}
{"variant.designation": "TAAATTGATATTGC A24G", "measured.metric": "relative integration efficiency (log2)", "reported.value": 0.156}
{"variant.designation": "TAAATTGATATTGC A53C", "measured.metric": "relative integration efficiency (log2)", "reported.value": 0.07}
{"variant.designation": "TAAATTGATATTGC C61A", "measured.metric": "relative integration efficiency (log2)", "reported.value": 1.04}
{"variant.designation": "TAAATTGATATTGC C18A", "measured.metric": "relative integration efficiency (log2)", "reported.value": -0.272}
{"variant.designation": "TAAATTGAATAAGC", "measured.metric": "relative integration efficiency (log2)", "reported.value": 1.55}
{"variant.designation": "TAAATTGATATTGC T48G", "measured.metric": "relative integration efficiency (log2)", "reported.value": -0.379}
{"variant.designation": "TAAATTGATATTGC A24C", "measured.metric": "relative integration efficiency (log2)", "reported.value": 0.1}
{"variant.designation": "AAAATTGATATTGC", "measured.metric": "relative integration efficiency (log2)", "reported.value": 0.998}
{"variant.designation": "ATTTAACTATAACG A15T", "measured.metric": "relative integration efficiency (log2)", "reported.value": 1.8}
{"variant.designation": "TAAATTGATATTGC T40G", "measured.metric": "relative integration efficiency (log2)", "reported.value": -1.24}
{"variant.designation": "ATTTAACTATAACG T32A", "measured.metric": "relative integration efficiency (log2)", "reported.value": 2.13}
{"variant.designation": "TAAATTGATATTGC T12C", "measured.metric": "relative integration efficiency (log2)", "reported.value": -0.906}
{"variant.designation": "TAAATTGCGATTGC", "measured.metric": "relative integration efficiency (log2)", "reported.value": 1.51}
{"variant.designation": "TAAATTGATATTGC C60A", "measured.metric": "relative integration efficiency (log2)", "reported.value": 1.55}
{"variant.designation": "TAAATTGATATTGC T28G", "measured.metric": "relative integration efficiency (log2)", "reported.value": 0.189}
{"variant.designation": "TAAATTGATATTGT", "measured.metric": "relative integration efficiency (log2)", "reported.value": 0.155}
{"variant.designation": "TAAATTGATATTGC T52A", "measured.metric": "relative integration efficiency (log2)", "reported.value": 0.276}
{"variant.designation": "ATTTAACTATAACG A43T", "measured.metric": "relative integration efficiency (log2)", "reported.value": 2.15}
{"variant.designation": "TAAATTGATATTGC A56C", "measured.metric": "relative integration efficiency (log2)", "reported.value": 0.317}
